- Read-out: Interleukin-8 (IL8), CXCL8 (gene 3576)
- test description: BSK_hDFCGF_IL8: BioMAP Diversity Plus: hDFCGF Assay for Interleukin-8 (IL8) Biomarker Activity (AID 2283058)
- condition summary: primary human foreskin fibroblasts; actives raise or lower the signal
Calls of active or inactive are those of the source. How the source made its calls: active means hit-call score of the fitted dose curve at least 0.9, where 1 is the maximum; inactive means score below 0.9.
Possible outcomes: active, inactive

>>> print(df.to_string())
                               given_smiles  group_label
0  C=CCc1cc(S(=O)(=O)c2ccc(O)c(CC=C)c2)ccc1O       active
1  c1ccc(C(O[C@@H]2CCCN(CCc3ccc4c(c3)OCO4)C2)c2ccccc2)cc1     inactive
2         C[Si](C)(C)C(F)(F)C(F)(F)C(F)(F)F     inactive
3                Cn1c(=O)c2[nH]cnc2n(C)c1=O     inactive

###

- test description: BSK_4H_Eotaxin3: BioMAP Diversity Plus: 4H Assay for Eotaxin 3 Biomarker Activity (AID 2283000)
- condition summary: primary human endothelial cells (HUVEC); actives raise or lower the signal
Activity calls are given as the source filed them. The calls were made as follows: active = hit-call score of the fitted dose curve at least 0.9, where 1 is the maximum; inactive = score below 0.9.
Possible outcomes: Y for active, N for inactive

In [3]: df
Out[3]:
                                given_smiles  group_label
 0  Cc1nccn1-c1ccc(Sc2cccc(C3(C(N)=O)CCOCC3)c2)cc1            N
 1        OC(Cn1cncn1)(Cn1cncn1)c1ccc(F)cc1F            N
 2                           CCCC(CCC)C(=O)O            N
 3  Cc1ncc([C@@H](CCCCCCc2ccc3c(n2)NCCC3)CC(=O)O)cn1            N
 4               CCCCCCCCCCCCCCCCOS(=O)(=O)O            N
 5  C=CCc1cc(S(=O)(=O)c2ccc(O)c(CC=C)c2)ccc1O            Y
 6                                  CNC(C)=O            N
 7  CC[C@H](C)C(=O)O[C@H]1C[C@H](O)C=C2C=C[C@H](C)[C@H](CC[C@@H](O)C[C@@H](O)CC(=O)O)[C@H]21            N
 8                CCN(CC)C(=S)SSC(=S)N(CC)CC            Y
 9                                OC(CCl)CCl            N
10                 CC1(C)C(=O)N(Cl)C(=O)N1Cl            N
11       O=C(Cl)C(F)(F)C(F)(F)C(F)(F)C(=O)Cl            N
12    O=c1[nH]cnc2c1ncn2[C@H]1CC[C@@H](CO)O1            N
13                            c1ccc2ncccc2c1            N

###

- Read-out: serum amyloid A (SAA), SAA1 (gene 6288)
- test description: BSK_CASM3C_SAA: BioMAP Diversity Plus: CASM3C Assay for serum amyloid A (SAA) Biomarker Activity (AID 2283049);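 further: SAA protein level quantified by ELISA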
- condition summary: primary human coronary artery smooth muscle cells; actives raise or lower the signal
Active and inactive are the calls of the source. How the source made its calls: active means hit-call score of the fitted dose curve at least 0.9, where 1 is the maximum; inactive means score below 0.9.
assay readout: AC50

In [3]: df
Out[3]:
                                    molecule  assay_readout    observed_value
 0                             CCCCCCCCN(C)C           AC50          inactive
 1  c1ccc(C(O[C@@H]2CCCN(CCc3ccc4c(c3)OCO4)C2)c2ccccc2)cc1           AC50          inactive
 2  FC(F)C(F)(F)COCC1CO1 (configuration not stated)           AC50          inactive
 3  C=CCc1cc(S(=O)(=O)c2ccc(O)c(CC=C)c2)ccc1O           AC50  28.3 µM (active)
 4  CC[C@H](C)C(=O)O[C@H]1C[C@H](O)C=C2C=C[C@H](C)[C@H](CC[C@@H](O)C[C@@H](O)CC(=O)O)[C@H]21           AC50          inactive
 5                                OCc1ccccc1           AC50          inactive
 6  C[C@@H](Oc1ccc(CNC(=O)c2cccnc2Oc2ccc3c(c2)OCO3)c(F)c1)C(=O)O           AC50          inactive
 7                                CCCCCCCCCC           AC50          inactive
 8                                OCCOCCOCCO           AC50          inactive
 9  Cc1nc(-c2ccccn2)ncc1C(=O)Nn1cc(C)c2cc(F)ccc21           AC50          inactive
10  FC(F)=C(F)C(F)(F)C(F)(F)C(F)(F)C(F)(F)C(F)(F)C(F)(F)F           AC50          inactive
11                           CCCCCCCCCCCCCCO           AC50    31 µM (active)

###

- Read-out: Cytochrome P450 7A1 (Homo sapiens) (UniProt P22680)
- test description: LTEA_HepaRG_CYP7A1: Life Technologies and Expression Analysis (LTEA) Assay for Cytochrome P450 7A1 (CYP7A1) using HepaRG (AID 2283496)
- condition summary: mRNA level, 48 h; actives raise or lower the signal
Active and inactive are the calls of the source. How the source made its calls: active means hit-call score of the fitted dose curve at least 0.9, where 1 is the maximum; inactive means score below 0.9.
Possible outcomes: t for active, f for inactive

>>> print(df.to_string())
                               given_smiles  group_label
0  Nc1ccn([C@@H]2O[C@H](CO)[C@@H](O)[C@@H]2O)c(=O)n1            f
1  O=C(O)c1cccc(C[C@@H]2COc3ccc(OCc4nc5cc(F)ccc5s4)cc3[C@@H]2O)c1            t
2        OC(Cn1cncn1)(Cn1cncn1)c1ccc(F)cc1F            f
3  CCOc1ccc2[nH]cc(C(=O)NCc3ccccc3)c(=O)c2n1            f
4  Cc1nc(-c2ccccn2)ncc1C(=O)Nn1cc(C)c2cc(F)ccc21            f

###

- test description: CCTE_Harrill_HTTr_Apoptosis_MCF7: CCTE's 6-hour Apoptosis Assessment for the High-Throughput Transcriptomics (HTTr) Platform, in MCF-7 cells cultured in DMEM + 10% fetal bovine serum, Harrill Lab (AID 2284011)
The source made the active and inactive calls. Rule for the calls: active = hit-call score of the fitted dose curve at least 0.9, where 1 is the maximum; inactive = score below 0.9.
assay readout: outcome

                               given_smiles  observed_value
0   O=C1CN(N=Cc2ccc([N+](=O)[O-])o2)C(=O)N1        inactive
1                              C=CN1CCCC1=O        inactive
2  CC(C)C(=O)Nc1ccc([N+](=O)[O-])c(C(F)(F)F)c1        inactive
3  C=CCc1cc(S(=O)(=O)c2ccc(O)c(CC=C)c2)ccc1O        inactive
4  CC(C)c1nnc2ccc(-c3ocnc3-c3cc(F)ccc3F)cn12        inactive
5                                   NC(N)=O        inactive
6                              COS(C)(=O)=O        inactive

###

- test description: APR_HepG2_NuclearSize_72hr: Apredica 72-hour HepG2 Assay for Nuclear Size (AID 2282925)
- condition summary: high-content imaging, actives raise or lower the signal
Calls of active or inactive are those of the source. How the source made its calls: active means hit-call score of the fitted dose curve at least 0.9, where 1 is the maximum; inactive means score below 0.9.
assay readout: outcome

>>> df
                                    molecule  observed_value
 0  O=C(NO)C1(NS(=O)(=O)c2ccc(Oc3ccc(F)cc3)cc2)CCOCC1        inactive
 1                           CCc1cccc(CC)c1N        inactive
 2  CCCCCCOC(=O)CC(CC(=O)OCCCCCC)(OC(=O)CCC)C(=O)OCCCCCC        inactive
 3                             OCC(CO)(CO)CO        inactive
 4                                OCCOCCOCCO        inactive
 5  O=S(=O)(O)c1ccc(N=Nc2c(O)ccc3cc(S(=O)(=O)O)ccc23)cc1        inactive
 6                            c1ccc2ncccc2c1        inactive
 7    O=c1[nH]cnc2c1ncn2[C@H]1CC[C@@H](CO)O1        inactive
 8                    O=C(O)c1cccc(C(=O)O)c1        inactive
 9                             CCCCCCCCN(C)C        inactive
10                Cn1c(=O)c2[nH]cnc2n(C)c1=O        inactive
11                           NNC(=O)c1ccncc1        inactive
12     CCn1nc(C)c2c1C(=O)NCC(c1ccc(O)cc1)=N2        inactive
13                CCN(CC)C(=S)SSC(=S)N(CC)CC        inactive
14          CC(C)CC(C)O (stereo unspecified)        inactive
15  CC(C)CCCCCCOC(=O)C1CCCCC1C(=O)OCCCCCCC(C)C (stereo unspecified)        inactive
16                           CCCCCCCCCCCCCCO        inactive
17  CCCCCCCC/C=C\CCCCCCCC(=O)OC[C@@H](O)[C@H]1OC[C@H](O)[C@H]1O        inactive
18                        CCCCOC(=O)c1ccccc1        inactive
19              NC(=O)N1c2ccccc2C=Cc2ccccc21        inactive
20        c1ccc2c(c1)-c1cccc3c1c-2cc1ccccc13        inactive
21  NC(=O)N(O)[C@@H]1COc2cc(OCc3ccccc3)ccc21        inactive
22  Cc1nc(-c2ccccn2)ncc1C(=O)Nn1cc(C)c2cc(F)ccc21        inactive
23                      c1ccc2cc3ccccc3cc2c1        inactive
24  COCc1nnc(-c2ccc[n+]([O-])c2)n1-c1c(Cl)c(Cl)cc2[nH]c(=O)c(=O)[nH]c12        inactive
25        OC(Cn1cncn1)(Cn1cncn1)c1ccc(F)cc1F        inactive
